Entries annotated with measured pEC50
TARGET_SYSTEM: human somatostatin receptor subtype 5 (Homo sapiens, UniProt P35346)
Construct: expressed in transfected cells
Sequence (P35346 whole entry): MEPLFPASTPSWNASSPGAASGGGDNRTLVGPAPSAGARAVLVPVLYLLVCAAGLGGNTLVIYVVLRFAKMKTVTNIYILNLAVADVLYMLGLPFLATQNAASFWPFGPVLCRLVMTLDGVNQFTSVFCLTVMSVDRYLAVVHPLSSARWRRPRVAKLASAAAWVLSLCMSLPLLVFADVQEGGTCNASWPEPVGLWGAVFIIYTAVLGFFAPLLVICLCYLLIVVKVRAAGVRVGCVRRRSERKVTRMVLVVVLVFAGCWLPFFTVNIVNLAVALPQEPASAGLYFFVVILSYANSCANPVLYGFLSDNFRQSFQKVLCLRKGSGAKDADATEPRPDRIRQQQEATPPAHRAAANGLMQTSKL
PROCEDURE_TEXT: cAMP assay for SST5R (inhibition of cAMP in CHO-K1 cells)
Assay type: cell-based
ASSAY_CONDITIONS: Table B; inhibition of cAMP via human SST5 receptor; read-out: SST5 potency
pEC50: −log10 of the molar value.

Record excerpt, results attached:
{"COMPOUND": "CCC(C)CNC(=O)c1cncc(-c2cc(F)cc(F)c2)c1N1CC[C@](C)(N)C1 (some centres unmarked)", "TARGET_SYSTEM": "human somatostatin receptor subtype 5 (Homo sapiens, UniProt P35346)", "REPORTED_METRIC": "pEC50", "RESULT": "> 8.00"}
{"COMPOUND": "Cc1cc(F)cc(-c2cncc(C(=O)NC(C3CC3)C3CC3)c2N2CC[C@](C)(N)C2)c1", "TARGET_SYSTEM": "human somatostatin receptor subtype 5 (Homo sapiens, UniProt P35346)", "REPORTED_METRIC": "pEC50", "RESULT": "> 8.00"}
{"COMPOUND": "Cc1cccc2[nH]c(-c3cncc(C(=O)N4CC5CCC4CC5)c3N3CC[C@](C)(N)C3)nc12", "TARGET_SYSTEM": "human somatostatin receptor subtype 5 (Homo sapiens, UniProt P35346)", "REPORTED_METRIC": "pEC50", "RESULT": "> 8.00"}
{"COMPOUND": "C[C@H](NC(=O)c1cnc(OCC2COC2)c(-c2cc(F)cc(F)c2)c1N1CC[C@](C)(N)C1)C1CC1", "TARGET_SYSTEM": "human somatostatin receptor subtype 5 (Homo sapiens, UniProt P35346)", "REPORTED_METRIC": "pEC50", "RESULT": "> 8.00"}
{"COMPOUND": "CCC(CC)CNC(=O)c1cncc(-c2cc(F)cc(F)c2)c1N1CC[C@](C)(N)C1", "TARGET_SYSTEM": "human somatostatin receptor subtype 5 (Homo sapiens, UniProt P35346)", "REPORTED_METRIC": "pEC50", "RESULT": "> 8.00"}

Turning now to a further record.
Which pEC50 is listed for CC1(C)CC(NC(=O)c2cnc(C#N)c(-c3cc(F)cc(F)c3)c2N2CC[C@](C)(N)C2)CCO1 (some centres unmarked) ? > 8.00
